Reported GI50 by item:
# Tested on: A498
# assay-notes: NCI tumour cell line growth inhibition, 48 h
Active and inactive are the calls of the source. No stated cut-off is given here; in the data, active = GI50 up to about 1.1 µM and inactive = higher.
measurement-kind: GI50

[[record]]
compound = "C=CCOCCCCC(C(C)=O)C(=O)OC (stereo not drawn)"
endpoint_result = "> 100 µM (inactive)"

[[record]]
compound = "O=[N+]([O-])c1ccc(-c2csc3nc(-c4ccccc4)nn23)cc1"
endpoint_result = "> 100 µM (inactive)"

[[record]]
compound = "Nc1nc2[nH]cnc2c(=S)[nH]1"
endpoint_result = "6.68 µM (inactive)"

[[record]]
compound = "O=C(Nc1ccc(Cl)cc1)NS(=O)(=O)c1ccc2c(c1)CCC2"
endpoint_result = "45 µM (inactive)"

[[record]]
compound = "COc1cc(C=O)cc(/C=N/n2c3ccccc3c3ccccc32)c1O"
endpoint_result = "20.7 µM (inactive)"

[[record]]
compound = "O=P1(Oc2ccccc2)N(CCCl)CCN1c1ccccc1 (stereo not drawn)"
endpoint_result = "55 µM (inactive)"

[[record]]
compound = "Cc1cc(C)nc(NS(=O)(=O)c2ccc(NC(=O)c3cccc4c(N)c5ccccc5nc34)cc2)n1"
endpoint_result = "> 100 µM (inactive)"

[[record]]
compound = "CC(C)C1OC(=O)C(Cc2ccccc2)N(C)C(=O)C(C(C)C)OC(=O)C(Cc2ccccc2)N(C)C(=O)C(C(C)C)OC(=O)C(Cc2ccccc2)N(C)C1=O (stereo not drawn)"
endpoint_result = "2.36 µM (inactive)"

[[record]]
compound = "CC(C)CC(=O)N1CCN(C(=O)CC(C)C)c2ccccc21"
endpoint_result = "> 100 µM (inactive)"

[[record]]
compound = "CC1=C2C(O)C(C(C)C(=O)N(C)C)CCC2(C)C=CC1=O (stereo not drawn)"
endpoint_result = "> 100 µM (inactive)"

[[record]]
compound = "N=c1nc(N)c2cc3c(N)nc(=N)c3cc12"
endpoint_result = "> 9.27 µM (inactive)"

[[record]]
compound = "C(=C\\c1ccc2ccccc2c1Nc1ccccc1)/c1ccccc1"
endpoint_result = "18.3 µM (inactive)"

[[record]]
compound = "Nc1cccc(/C=C/C(=O)N2CCN(CCOC(c3ccccc3)c3ccccc3)CC2)c1"
endpoint_result = "17.5 µM (inactive)"

